Measured IC50 on Glycogen synthase kinase-3 beta (Homo sapiens) follows.
Sequence (P49841 whole entry): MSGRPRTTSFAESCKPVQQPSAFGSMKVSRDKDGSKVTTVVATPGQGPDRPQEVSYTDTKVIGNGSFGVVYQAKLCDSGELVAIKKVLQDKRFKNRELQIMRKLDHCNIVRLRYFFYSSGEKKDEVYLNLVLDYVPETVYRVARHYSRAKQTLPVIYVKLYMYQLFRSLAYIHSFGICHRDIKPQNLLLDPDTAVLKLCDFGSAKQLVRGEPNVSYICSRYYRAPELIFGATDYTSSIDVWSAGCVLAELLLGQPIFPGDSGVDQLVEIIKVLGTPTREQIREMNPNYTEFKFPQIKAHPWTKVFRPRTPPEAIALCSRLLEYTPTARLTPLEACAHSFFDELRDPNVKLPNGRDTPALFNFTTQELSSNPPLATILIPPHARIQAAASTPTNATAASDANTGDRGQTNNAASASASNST
readout.type: IC50 (nM)

1) CC(=O)NC1=NC(=O)/C(=C2\CCNC(=O)c3c2cc(Br)n3C(C)=O)N1	129
2) O=C1Nc2ccc(Br)cc2/C1=C1/Nc2ccccc2/C1=N\O	5.01
3) O=C1NC(=O)C(c2cnc3cccnn23)=C1c1cn2c3c(cccc13)CN(C(=O)N1CCCCC1)CC2 [BISARYLMALEIMIDE 1]	0.708
4) CN1CCN(c2cnc(NCCNc3ccc([N+](=O)[O-])c(N)n3)nc2-c2ccc(Cl)cc2Cl)C(=O)C1	3.98
5) CN(C)CCNC(=O)c1ccc(/C=N/Nc2ncnc3c2cnn3-c2cccc3[nH]cnc23)cc1	1.58
6) O=C1NC(=O)C2=C1c1cn(c3ccccc13)CCOCCOCCOCCn1cc2c2ccccc21 [INDOLYLYLMALEIMIDE 2]	21.9
7) CC(=O)O/N=C1/C(=C2/C(=O)Nc3cc(Cl)c(Cl)cc32)Nc2ccccc21	3.98
8) O=C1NC(=O)C(c2cncc3ccoc23)=C1c1cn2c3c(cccc13)CN(C(=O)N1CCOCC1)CC2 [BISARYLMALEIMIDE 2]	0.794
